Measured On: Prostaglandin G/H synthase 2 (Homo sapiens)
Test Method Notes: Inhibition of human recombinant COX2 expressed in Sf21 cells assessed as conversion of arachidonic acid to PGE2 at 10 uM preincubated for 15 mins measured after 5 mins by enzyme immunoassay
Calls of active or inactive are those of the source. No cut-off for these calls is given here.
Measure: inhibition

As a guide, the following entries are already answered.
INSERT INTO assay_data (compound, measured_on, reading) VALUES
  ('Cc1ccc(S2=NS(=O)(=O)c3ccc(S(N)(=O)=O)cc32)cc1 (stereo unspecified)', 'Prostaglandin G/H synthase 2 (Homo sapiens)', '2%'),
  ('NS(=O)(=O)c1ccc2c(c1)S(c1ccc(F)cc1)=NS2(=O)=O (stereo unspecified)', 'Prostaglandin G/H synthase 2 (Homo sapiens)', '2%'),
  ('NS(=O)(=O)c1ccc2c(c1)S(c1ccc(Cl)c(Cl)c1)=NS2(=O)=O (stereo unspecified)', 'Prostaglandin G/H synthase 2 (Homo sapiens)', '14%'),
  ('CCc1ccc(S2=NS(=O)(=O)c3cc(S(C)(=O)=O)ccc32)cc1 (stereo unspecified)', 'Prostaglandin G/H synthase 2 (Homo sapiens)', '43%'),
  ('COc1cc(OC)cc(OCCS2=NS(=O)(=O)c3cc([N+](=O)[O-])ccc32)c1 (stereo unspecified)', 'Prostaglandin G/H synthase 2 (Homo sapiens)', '35%'),
  ('CC(C)c1ccc(S2=NS(=O)(=O)c3cc(S(N)(=O)=O)ccc32)cc1 (stereo unspecified)', 'Prostaglandin G/H synthase 2 (Homo sapiens)', '44%'),
  ('NS(=O)(=O)c1ccc2c(c1)S(=O)(=O)N=S2c1ccc(-c2ccccc2)cc1 (stereo unspecified)', 'Prostaglandin G/H synthase 2 (Homo sapiens)', '31%'),
  ('COC(=O)c1ccc2c(c1)S(=O)(=O)N=S2c1ccc(Br)cc1 (stereo unspecified)', 'Prostaglandin G/H synthase 2 (Homo sapiens)', '33%');

Exercise: Give the reported inhibition for this compound. COc1ccc(S2=NS(=O)(=O)c3ccc(S(N)(=O)=O)cc32)cc1 (stereo unspecified)
Solution: inactive

Exercise: Read the entry NS(=O)(=O)c1ccc2c(c1)S(c1ccc(F)cc1F)=NS2(=O)=O (stereo unspecified) and write its reported inhibition.
Solution: inactive

Exercise: Find the measured inhibition of O=S1(=O)N=S(c2ccc(Br)cc2)c2ccccc21 (stereo unspecified) and report it.
Solution: 2%

====

# reported inhibition; entries follow
Measured On: Polyunsaturated fatty acid 5-lipoxygenase (Homo sapiens)
Test Method Notes: Inhibition of […] human 5-LOX in human PBML assessed as inhibition of A23187-induced LTB4 production at 10 uM preincubated for 15 mins measured after 15 mins by enzyme immunoassay

Below, each entry is followed by its recorded inhibition result.
INSERT INTO assay_data (molecule, reading) VALUES
  ('CC(C)c1ccc(S2=NS(=O)(=O)c3cc(S(N)(=O)=O)ccc32)cc1 (stereo unspecified)', '42%'),
  ('NS(=O)(=O)c1ccc2c(c1)S(c1cccc(Br)c1)=NS2(=O)=O (stereo unspecified)', '28%'),
  ('NS(=O)(=O)c1ccc2c(c1)S(c1ccc(Cl)cc1)=NS2(=O)=O (stereo unspecified)', '19%'),
  ('NS(=O)(=O)c1ccc2c(c1)S(c1ccc(F)cc1)=NS2(=O)=O (stereo unspecified)', '9%');

Attention now turns to another entry.
Exercise: Indicate its recorded inhibition; the molecule in question is Cc1ccc(S2=NS(=O)(=O)c3ccc(S(N)(=O)=O)cc32)cc1 (stereo unspecified)
Solution: 9%
